molecular target: Focal adhesion kinase 1 (Homo sapiens) (UniProt Q05397); assay: small-molecule microarray binders of FAK, primary screen, biochemical, 635/667 nm fluorescence, BSA, DTT (AID 1130); details: PTK2 binding, 635 nm fluorescence, higher = more signal;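 also: composite of spot emission at 667 nm and signal to noise over triplicate slides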
Sequence (Q05397 whole entry, looked up): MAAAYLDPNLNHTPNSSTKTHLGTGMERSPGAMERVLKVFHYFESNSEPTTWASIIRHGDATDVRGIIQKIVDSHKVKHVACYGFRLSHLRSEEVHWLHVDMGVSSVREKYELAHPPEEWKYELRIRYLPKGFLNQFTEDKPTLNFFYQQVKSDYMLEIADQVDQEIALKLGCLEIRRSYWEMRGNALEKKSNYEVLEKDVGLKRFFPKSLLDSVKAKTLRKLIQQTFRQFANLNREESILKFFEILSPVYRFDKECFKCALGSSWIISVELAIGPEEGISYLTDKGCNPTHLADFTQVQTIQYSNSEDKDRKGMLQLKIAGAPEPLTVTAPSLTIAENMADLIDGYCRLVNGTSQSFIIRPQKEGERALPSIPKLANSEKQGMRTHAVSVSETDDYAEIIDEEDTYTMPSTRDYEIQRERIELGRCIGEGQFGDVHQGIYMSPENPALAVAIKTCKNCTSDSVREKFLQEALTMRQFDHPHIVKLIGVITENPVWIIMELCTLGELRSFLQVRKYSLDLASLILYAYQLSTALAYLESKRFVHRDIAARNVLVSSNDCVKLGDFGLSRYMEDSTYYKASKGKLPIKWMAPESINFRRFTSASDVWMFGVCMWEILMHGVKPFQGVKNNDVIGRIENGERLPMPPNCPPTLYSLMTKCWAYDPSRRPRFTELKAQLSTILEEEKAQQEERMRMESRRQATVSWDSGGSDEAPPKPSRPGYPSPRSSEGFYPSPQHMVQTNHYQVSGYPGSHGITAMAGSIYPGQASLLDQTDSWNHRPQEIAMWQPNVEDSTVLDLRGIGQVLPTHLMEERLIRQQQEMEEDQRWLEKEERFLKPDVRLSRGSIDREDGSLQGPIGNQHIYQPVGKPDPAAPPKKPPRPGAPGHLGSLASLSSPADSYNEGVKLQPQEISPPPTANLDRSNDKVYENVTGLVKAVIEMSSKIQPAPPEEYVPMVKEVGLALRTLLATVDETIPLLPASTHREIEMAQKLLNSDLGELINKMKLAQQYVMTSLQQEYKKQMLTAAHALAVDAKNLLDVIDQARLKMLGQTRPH
I'd appreciate it if you could supply composite z-score values for the items below.
Give bare numbers.

C=CCNC(=O)[C@H]1[C@@H]2C(=O)O[C@@H](c3ccccc3)[C@@H](c3ccccc3)N2[C@@H](c2ccc(OCCO)cc2)[C@]12C(=O)Nc1ccc(C#CC3=CCCCC3)cc12    -0.544
C=CC[C@]12N=C(c3ccc(OCCCO)cc3)O[C@H]1c1ccccc1N(Cc1ccccc1)C2=O    0.804

Could you report composite z-score for every entry in the following list?
1. O=C1OCC=C[C@H]2OC34C=CCN(CCN5CCOCC5)C(=O)[C@H]3N(CCCO)C(=O)[C@@H]4[C@@H]12 (stereo partly specified)
2. CN(C)CCCNC(=O)[C@@]1(c2ccc([N+](=O)[O-])cc2)CC(=O)N(C2CCCCC2)[C@@H]1c1ccc(CO)cc1I
3. C#CCN(CC1=CCCCC1)[C@H](c1ccccc1Br)[C@@H](O)Cc1ccccc1
4. CN(C)C(=O)[C@]1(Cc2ccccc2N=[N+]=[N-])N=C(c2ccc(OCCCO)cc2)O[C@@H]1c1ccccc1

[0.574, 0.634, 1.98, 0.633]

====

test: E. coli growth modulation, two-sided OD650, primary screen, E. coli filamentation project, strain DRC41, 24 h (AID 1093); conditions: OD650, 24 h, higher = more signal, called active from +8 up or from −8 down;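 also: MC1000 strain lacking acrAB efflux and sulA so SOS filamentation is blocked; test concentration not given here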
I'd appreciate it if you could supply z-score values for the items below.
One number for each entry.

C=CCN1C(=O)[C@@]2(O[C@@H](CCO)[C@H]([Si](C)(C)c3ccc(OC)cc3)[C@H]2C)c2cc(NC(=O)c3ccc(OC)cc3)ccc21    0.702

Could you report z-score for every entry in the following list?
1. COc1ccc(C(O)C2C=CC3C(=O)N(c4ccccc4)C(=O)C3N2Nc2ccccc2F)cc1OCc1ccccc1 (centres undefined)
2. CN1C2C=C(CCCO)C(C3C(=O)N(C(N)=O)C(=O)C32)C1c1ccc(CN2CCCC2)cc1 (centres undefined)

[-0.994, 0.194]

Which z-score value belongs to CC(=O)N1Cc2ccccc2C[C@@]2(COC(c3ccc(OCCCO)cc3)=N2)C1=O ?
1.81

====

assay: binders of probe aFGF10 on microarray, primary screen, stem cell growth factor project, biochemical, small-molecule microarray, fluorescence 635/667 (AID 1071); conditions: higher = more signal;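 also: score merges 667 nm spot intensity and signal to noise from triplicate slides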
I'd appreciate it if you could supply composite z-score values for the items below.
Answers are plain numbers.

As a guide, the following entries are already answered.
C[C@@H]1ON(c2cccc(C(=O)OC(C)(C)C)c2)[C@H](c2ccc(Br)cc2)[C@H]1C(=O)N1C(=O)OC[C@H]1Cc1ccccc1    0.511
COc1cc(CO)cc(I)c1O[C@H]1C=C(C(=O)NCCO)C[C@@H](N(CCN2CCOCC2)C(=O)C2CCOC2)[C@@H]1O (stereo not given in full)    0.501
O=C1c2ccccc2[C@](Cc2ccccc2I)(C(=O)NC2CC2)[C@H](c2ccc(CO)cc2)N1Cc1ccccc1    0.483
O=C1O[C@H](c2ccccc2)[C@H](c2ccccc2)N2[C@H]1[C@@H](C(=O)Nc1nc3ccccc3s1)[C@]1(C(=O)Nc3ccc(C#CCCO)cc31)[C@H]2c1ccc(OCCO)cc1    1.14
COCCOC(=O)N1C(=O)[C@@]2(c3cc(C#CCCO)ccc31)[C@H](C(=O)N1CCc3cc(OC)c(OC)cc3C1)[C@H]1C(=O)O[C@H](c3ccccc3)[C@H](c3ccccc3)N1[C@@H]2c1ccc(O)cc1    0.393

Could you report composite z-score for every entry in the following list?
1. C=CCNC(=O)[C@@H]1[C@H]2C(=O)O[C@H](c3ccccc3)[C@H](c3ccccc3)N2[C@H](c2ccccc2OCCO)[C@@]12C(=O)N(C(=O)OCCOC)c1ccc(C#CCNC(N)=O)cc12
2. COCC(=C=CC[C@@H](O)c1ccccc1OCCO)C[C@@H](O)c1cc(Cl)cc(Cl)c1O

0.354
1.14

Could you report composite z-score for every entry in the following list?
1. CN(C)CCCCCCNC(=O)[C@@H]1C[C@@H]2C(=O)N[C@@H](CCCCN)C(=O)N2[C@@H]1c1cccc(OCCO)c1
2. C=CCC(OC(C)=O)[C@@H]1[C@@H](N(Cc2ccc(-c3cccc(C(F)(F)F)c3)o2)C(=O)Cc2ccc(F)cc2)c2cc(OCCCO)ccc2N1C(=O)Cc1ccc(OC)cc1 (stereo not given in full)
3. CCCC[C@@H]1C[C@H]1[C@@H](NC(=O)c1ccco1)c1ccc(Cl)cc1

1.13
0.318
0.0982

====

target: Pro-neuregulin-1, membrane-bound isoform (Homo sapiens); test: NRG1 binders on small-molecule microarrays, primary screen, psychiatric disease protein project, biochemical, small-molecule microarray, fluorescence 635/667 (AID 1075); settings: NRG1 binding, 635 nm fluorescence, higher = more signal;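 also: score combines 667 nm spot fluorescence with signal to noise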
I'd appreciate it if you could supply composite z-score values for the items below.
Answers are plain numbers.

As a guide, the following entries are already answered.
CCCCC=C[C@@H](NC(=O)Oc1cccc(C(F)(F)F)c1)c1ccccc1    1.47
COCCCNC(=O)C1N=C(c2ccc(OCCCO)cc2)N(c2ccccc2)O1 (stereo not drawn)    0.124

Then this compound:
Which composite z-score value belongs to C=CCOC(=O)[C@@H]1[C@H]2C(=O)O[C@H](c3ccccc3)[C@H](c3ccccc3)N2[C@H](c2ccc(OCCOC(=O)[C@@H]3C[C@@H]4C(=O)N[C@@H](Cc5ccccc5)C(=O)N4[C@@H]3c3ccc(O)cc3)cc2)[C@@]12C(=O)Nc1ccc(I)cc12 ?
0.612

====

I'd appreciate it if you could supply z-score values for the items below.
test: modulators of S6 phosphorylation in cells, primary screen, cell-based, A549, cytoblot, luminescence, serum-stimulated (AID 1158); settings: A549 phospho-S6 cytoblot, 5 h, higher = more signal;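 also: serum-stimulated A549 lung adenocarcinoma cells; signal is phosphorylated S6 detected by cytoblot immunostaining with HRP secondary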
Give bare numbers.

As a guide, the following entries are already answered.
CC(CO)N1C(=O)[C@@H]2C3C(=O)OCCC/C=C\[C@H]3OC23C=CCN(c2ccc4ccccc4c2)C(=O)[C@@H]13 (some centres undefined)    -0.13
O=C1OCCC/C=C\[C@H]2OC34C=CCN(Cc5ccccc5)C(=O)[C@H]3N(CCCCCCO)C(=O)[C@@H]4C12 (some centres undefined)    0.0169
O=C1OCCC/C=C\[C@H]2OC34C=CCN(c5ccc6ccccc6c5)C(=O)[C@H]3N(CCCCCCO)C(=O)[C@@H]4C12 (some centres undefined)    1.4
CCCCCC1=C2CNC(CCC)(C(=O)OC)C=C2C(C)C1=O (centres undefined)    -0.39
COc1cc(OC)c(C(O)C2C=CC3C(=O)NC(=O)C3N2Nc2ccc(Cl)cc2Cl)cc1Br (centres undefined)    -0.924
[N-]=[N+]=NCc1ccccc1[C@H]1OC(c2ccc(OCCCO)cc2)=N[C@@]1(Cc1ccccc1)C(=O)NCc1ccccc1    -0.669

Could you report z-score for every entry in the following list?
1. COCCCN1C(=O)[C@@]2(Cc3ccccc31)c1ccccc1C(=O)N(Cc1ccccc1C(F)(F)F)[C@H]2c1ccc(CO)cc1
2. COc1ccc([C@H]2OC[C@@H]3CC4(CC=CC4)C(=O)N32)cc1
3. C=CCC(OC(C)=O)[C@@H]1[C@@H](N(Cc2cccc3ccccc23)C(=O)c2ccc(-c3ccccc3)cc2)c2cc(OCCCO)ccc2N1C(=O)Cc1ccc(OC)cc1 (some centres undefined)

0.0136
-0.516
0.904

====

biological target: NADPH oxidase 4 (Homo sapiens); assay: NOX4-dependent H2O2 signal modulators, primary screen, NOX inhibitor project, cell-based, HEK293-NOX4, tetracycline-induced, Amplex Red fluorescence (AID 1160); settings: 45 min, higher = more signal, called active from +8 up or from −8 down
MEASURED_PARAMETER: z-score
Answers are plain numbers.

As a guide, the following entries are already answered.
CCCN1C(=O)[C@]2(CCS(=O)(=O)c3ccccc3)N=C(c3ccc(OCCCO)cc3)O[C@@H]2c2ccccc21    -0.284
COc1cc2c(cc1OC)CN(C(=O)[C@H]1[C@@H]3C(=O)O[C@@H](c4ccccc4)[C@@H](c4ccccc4)N3[C@@H](c3ccc(O)cc3)[C@]13C(=O)Nc1ccc(C#CC4=CCCCC4)cc13)CC2    0.513
C=CCNC(=O)[C@H]1[C@@H]2C(=O)O[C@@H](c3ccccc3)[C@@H](c3ccccc3)N2[C@@H](c2ccc(O)cc2)[C@]12C(=O)N(C(=O)OCCOC)c1ccc(C#CCNC(N)=O)cc12    0.291
O=C1O[C@H](c2ccccc2)[C@H](c2ccccc2)N2[C@H]1[C@@H](C(=O)N1CCN(c3ncccn3)CC1)[C@]1(C(=O)Nc3ccc(C#CC4=CCCCC4)cc31)[C@H]2c1ccc(O)cc1    0.537

Then this compound:
Which z-score value belongs to COc1ccc(CCN2C(=O)[C@@]3(c4ccc([N+](=O)[O-])cc4)CC(=O)N(C4CCCCC4)[C@@H]3c3ccc(CO)cc32)cc1 ?
-0.763
